FYI, the data here is from patent US20250059171A1.

Kindly supply the reported IC50 values for the records listed here.
# EXPERIMENTAL_SYSTEM: MERS-CoV 3CLpro (Middle East respiratory syndrome-related coronavirus, UniProt K9N7C7)
# Sequence (K9N7C7 3248-3553): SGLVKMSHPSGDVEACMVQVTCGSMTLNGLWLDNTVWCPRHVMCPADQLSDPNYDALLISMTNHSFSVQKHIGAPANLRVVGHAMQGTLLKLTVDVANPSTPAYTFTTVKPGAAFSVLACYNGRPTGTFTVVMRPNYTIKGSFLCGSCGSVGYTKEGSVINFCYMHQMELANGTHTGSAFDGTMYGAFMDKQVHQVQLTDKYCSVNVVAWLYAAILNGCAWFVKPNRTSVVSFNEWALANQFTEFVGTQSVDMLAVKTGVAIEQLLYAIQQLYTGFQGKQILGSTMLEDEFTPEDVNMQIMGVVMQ
# PROTOCOL_DETAILS: biochemical
Answers are plain numbers, in nM.

Your task in this section: give IC50 for each listed record.
1. CCC(CC)[C@H](NC(=O)C(F)F)C(=O)N1C[C@@H]2CCC[C@@H]2[C@H]1C(=O)NN(C[C@@H]1CCCNC1=O)C(=O)[C@H](F)Cl [Example 174]
2. CC[C@H](C)[C@H](NC(=O)C(C)(C)F)C(=O)N1C[C@@H]2CCC[C@@H]2[C@H]1C(=O)NN(C[C@@H]1CCNC1=O)C(=O)[C@H](F)Cl [Example 42]
3. CC(C)(C)C[C@H](NC(=O)C(F)(F)F)C(=O)N1C[C@H]2[C@@H]([C@H]1C(=O)NN(C[C@@H]1CCNC1=O)C(=O)[C@H](F)Cl)C2(C)C [Example 66]

A)
[123, 82, 141]

---

# EXPERIMENTAL_SYSTEM: HCoV-229E 3CLpro (Human coronavirus 229E)
# Sequence (P0C6X1 2966-3267): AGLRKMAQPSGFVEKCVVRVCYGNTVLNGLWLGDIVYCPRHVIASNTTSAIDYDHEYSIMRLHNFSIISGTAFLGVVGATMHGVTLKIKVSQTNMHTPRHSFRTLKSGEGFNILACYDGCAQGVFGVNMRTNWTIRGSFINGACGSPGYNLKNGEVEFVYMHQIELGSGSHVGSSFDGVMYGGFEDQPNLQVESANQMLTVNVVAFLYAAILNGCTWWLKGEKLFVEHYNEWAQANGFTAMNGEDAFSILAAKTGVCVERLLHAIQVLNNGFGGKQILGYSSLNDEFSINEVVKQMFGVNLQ
Please respond with reported IC50 for every item in the list.
Numbers only, in nM.

CCC(=O)N[C@H](C(=O)N1C[C@@H]2CCC[C@@H]2[C@H]1C(=O)NN(C[C@@H]1CCNC1=O)C(=O)[C@H](F)Cl)[C@@H](C)CC ... 29
CC(C)(C)[C@H](NC(=O)C(F)(F)C(F)(F)F)C(=O)N1C[C@@H]2CCC[C@@H]2[C@H]1C(=O)NN(C[C@@H]1CCNC1=O)C(=O)[C@H](F)Cl ... 19

Please find the next compound below.
Q) What IC50 value was documented for this compound, CC1(C)[C@@H]2[C@@H](C(=O)NN(C[C@@H]3CCNC3=O)C(=O)[C@H](F)Cl)N(C(=O)[C@H](CC34CC(C3)C4)NC(=O)C(F)(F)F)C[C@@H]21 ?
A) 25

---

Exercise: for every item that follows, state its recorded IC50.
# EXPERIMENTAL_SYSTEM: SARS-CoV-2 3CLpro (Severe acute respiratory syndrome coronavirus 2)
# PROTOCOL_DETAILS: biochemical
Numbers only, in nM.

Solved cases below.
CC(C)(C)[C@H](NC(=O)[C@@H]1CC1(F)F)C(=O)N1C[C@H]2[C@@H]([C@H]1C(=O)NN(C[C@@H]1CCNC1=O)C(=O)[C@H](F)Cl)C2(C)C ... 8
CCC(CC)[C@H](NC(=O)C(F)F)C(=O)N1C[C@@H]2CCC[C@@H]2[C@H]1C(=O)NN(C[C@@H]1CCNC1=O)C(=O)[C@H](F)Cl ... 16
CC(C)(C)[C@H](NC(=O)C1(F)CC1)C(=O)N1C[C@H]2[C@@H]([C@H]1C(=O)NN(C[C@@H]1CCNC1=O)C(=O)[C@H](F)Cl)C2(C)C ... 9
CCC(=O)N[C@H](C(=O)N1C[C@@H]2CCC[C@@H]2[C@H]1C(=O)NN(C[C@@H]1CCNC1=O)C(=O)[C@H](F)Cl)C(C)(C)C ... 7
CC(C)(C)[C@H](NC(=O)C1CC1(F)F)C(=O)N1C[C@@H]2CCC[C@@H]2[C@H]1C(=O)NN(C[C@@H]1CCNC1=O)C(=O)[C@H](F)Cl (mixture of isomers) ... 8
CC1(C)[C@@H]2[C@@H](C(=O)NN(C[C@@H]3CCNC3=O)C(=O)[C@H](F)Cl)N(C(=O)[C@@H](NC(=O)C(F)(F)F)C3CC3)C[C@@H]21 ... 19

Please give IC50, item by item, for the list that follows.
1. CC[C@H](C)[C@H](NC(=O)[C@@H](F)Cl)C(=O)N1C[C@H]2[C@@H]([C@H]1C(=O)NN(C[C@@H]1CCNC1=O)C(=O)[C@@H](F)Cl)C2(C)C
2. CC1(C)C[C@@H](C(=O)NN(C[C@@H]2CCNC2=O)C(=O)[C@H](F)Cl)N(C(=O)[C@@H](NC(=O)C(F)(F)F)C(C)(C)C)C1
3. CC[C@H](C)[C@H](NC(=O)C(F)(F)F)C(=O)N1C[C@H]2[C@@H]([C@H]1C(=O)NN(C[C@@H]1CCNC1=O)C(=O)[C@@H](F)Cl)C2(C)C
4. CC[C@@H](C)[C@H](NC(=O)C1(F)CC1)C(=O)N1C[C@H]2[C@@H]([C@H]1C(=O)NN(C[C@@H]1CCNC1=O)C(=O)[C@H](F)Cl)C2(C)C
5. CC(C)(C)[C@H](Nc1cc(F)ncn1)C(=O)N1C[C@@H]2CCC[C@@H]2[C@H]1C(=O)NN(C[C@@H]1CCNC1=O)C(=O)[C@H](F)Cl

A)
1: 13; 2: 10; 3: 18; 4: 9; 5: 11

For every item below, please supply its IC50.
1. CC(F)(F)C(=O)N[C@H](C(=O)N1C[C@@H]2CCC[C@@H]2[C@H]1C(=O)NN(C[C@@H]1CCNC1=O)C(=O)[C@H](F)Cl)C(C)(C)C
2. CC[C@H](C)[C@H](NC(=O)[C@@H](F)Cl)C(=O)N1CC(C)(C)C[C@H]1C(=O)NN(C[C@@H]1CCNC1=O)C(=O)[C@@H](F)Cl
3. CC(C)(C)[C@H](NC(=O)[C@H]1CC1(F)F)C(=O)N1C[C@H]2[C@@H]([C@H]1C(=O)NN(C[C@@H]1CCNC1=O)C(=O)[C@@H](F)Cl)C2(C)C
4. CC(C)(C)[C@H](NC(=O)C(Cl)Cl)C(=O)N1C[C@@H]2CCC[C@@H]2[C@H]1C(=O)NN(C[C@@H]1CCNC1=O)C(=O)[C@H](F)Cl
5. CC(C)(C)[C@H](Nc1ccccn1)C(=O)N1C[C@@H]2CCC[C@@H]2[C@H]1C(=O)NN(C[C@@H]1CCNC1=O)C(=O)[C@H](F)Cl
6. CC(C)(C)[C@H](NC(=O)C(F)(F)F)C(=O)N1C[C@@H]2CCC[C@@H]2[C@H]1C(=O)NN(C[C@@H]1CCCNC1=O)C(=O)[C@H](F)Cl [Example 164a]

A)
1: 8; 2: 24; 3: 11; 4: 7; 5: 16; 6: 8

Quick request: IC50 for each listed item, please.
1. CC(C)(C)[C@H](NC(=O)C1(F)CC1)C(=O)N1C[C@@H]2CCC[C@@H]2[C@H]1C(=O)NN(C[C@@H]1CCNC1=O)C(=O)[C@H](F)Cl
2. CC[C@H](C)[C@H](NC(=O)C1CC1)C(=O)N1C[C@H]2[C@@H]([C@H]1C(=O)NN(C[C@@H]1CCNC1=O)C(=O)[C@H](F)Cl)C2(C)C

A)
1: 8; 2: 11

Could you tell me IC50 for each of these compounds? They are listed below.
1. CC[C@H](C)[C@H](NC(=O)C(F)F)C(=O)N1C[C@@H]2CCC[C@@H]2[C@H]1C(=O)NN(C[C@@H]1CCNC1=O)C(=O)[C@@H](F)Cl
2. CC(C)(C)[C@H](NC(=O)[C@@H]1CC1(F)F)C(=O)N1C[C@H](C(F)(F)F)C[C@H]1C(=O)NN(C[C@@H]1CCNC1=O)C(=O)[C@@H](F)Cl

A)
10
13
